Entries and their IC50, huIL-6 secretion by BJ cells; stimulus rhuIL-17A (0.5 nM)
experimental target: T1, recombinant human IL-17A (SEQ ID NO: 76) (human, UniProt Q16552 24-155, limits assumed)
T1 sequence: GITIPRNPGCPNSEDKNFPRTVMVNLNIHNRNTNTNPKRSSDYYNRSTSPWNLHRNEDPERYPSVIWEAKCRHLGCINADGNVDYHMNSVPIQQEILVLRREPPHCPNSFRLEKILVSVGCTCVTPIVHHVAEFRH
experiment summary: cell-based or functional assay
Give the number; nM is assumed, so skip it.

Field request: IC50, huIL-6 secretion by BJ cells; stimulus rhuIL-17A (0.5 nM) | item: XAB1 (antibody, human IgG1, kappa, V domains shown, human IgG1/kappa monoclonal antibody; also called parental XAB1; XAB1 IgG) VH: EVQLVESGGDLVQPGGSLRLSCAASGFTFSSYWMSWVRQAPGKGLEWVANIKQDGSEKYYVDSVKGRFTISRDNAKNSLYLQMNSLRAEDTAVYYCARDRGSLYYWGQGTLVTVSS VL: AIQLTQSPSSLSASVGDRVTITCRPSQGIISALAWYQQKPGKAPKLLIYDASSLENGVPSRFSGSGSGTDFTLTISSLQPEDFATYYCQQFNSYPLTFGGGTKVEIKR 4.97

Further cases:
Field request: IC50, huIL-6 secretion by BJ cells; stimulus rhuIL-17A (0.5 nM) | item: XAB2 (antibody, human IgG1, kappa, V domains shown) VH: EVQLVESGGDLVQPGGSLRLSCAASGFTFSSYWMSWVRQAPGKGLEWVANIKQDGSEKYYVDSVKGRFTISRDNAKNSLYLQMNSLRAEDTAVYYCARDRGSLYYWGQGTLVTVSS VL: AIQLTQSPSSLSASVGDRVTITCRPSQVIISALAWYQQKPGKAPKLLIYDASSLEQGVPSRFSGSVSGTDFTLTISSLQPEDFATYYCQQFDSYPLTFGGGTKVEIKR 0.64

Data provenance is patent US20180194839A1.
